Run description: Viability qHTS for spleen associated tyrosine kinase inhibitor (SYKi) drug resistant MV4-11 cells (AID 1963824); further: nearly all actives have a fitted effect of over 35% in size
Condition description: SYKi-resistant MV4-11 viability, CellTiter-Glo, 72 h; series mostly up to 45 µM
Records with an inconclusive call do not appear. The source made the active and inactive calls. The call rests on the fitted dose curve; in most records, active means well fitted cell-killing curve with a large enough effect; inconclusive means small, poorly fitted or top-dose-only effect, or effect the other way; inactive means no such curve, though single readings can be large or run the other way. Where a SMILES comes first, the peptide text is derived from it. [ ]: non-standard residue; d: D form. pGlu = O=C1CC[C@@H](C(=O)O)N1
// one of T (active), F (inactive), no free text

# Compound, Group label
records = [
    ("CCOC(=O)c1cnc2c(cnn2CC)c1NN=C(C)C", "F"),
]

Per the assay record, what outcome was assigned to C[C@H]1[C@H](NC(=O)/C(=N/OC(C)(C)C(=O)O)c2csc(N)n2)C(=O)N1S(=O)(=O)O (stereo in doubt) ? F

Queued: CCNC(=O)[C@@H]1CCCN1C(=O)[C@H](CCCN=C(N)N)NC(=O)[C@H](CC(C)C)NC(=O)CNC(=O)[C@H](Cc1ccc(O)cc1)NC(=O)[C@H](CO)NC(=O)[C@H](Cc1c[nH]c2ccccc12)NC(=O)[C@H](Cc1cnc[nH]1)NC(=O)[C@@H]1CCC(=O)N1 ([pGlu]HWSYGLRP-NHEt) F

Queued: CC1=CC(=O)C(C(C)C)=C/C1=N/OC(=O)c1ccccc1C T

Queued: COc1ccc2cc(C(C)C(=O)Oc3ccc(C(N)=S)cc3)ccc2c1 (centres undefined) F

Queued: CC1=C2C(=O)C=C(CO[C@@H]3O[C@H](CO)[C@@H](O)[C@H](O)[C@H]3O)[C@@H]2[C@H]2OC(=O)[C@H](C)[C@@H]2[C@@H](O)C1 F

Queued: CC1=C[C@H](O)[C@H]2C(C)(C)CCC[C@]2(C)[C@@]1(O)CO T

Queued: CC1=CC(=O)CC(C)(C)[C@@]1(O)/C=C/C(C)O[C@@H]1O[C@H](CO)[C@@H](O)[C@H](O)[C@H]1O (some centres undefined) F

Queued: CCOc1ccccc1OCCNC(C)Cc1ccc(OC)c(S(N)(=O)=O)c1 (centres undefined) F

###

Run description: Viability qHTS for spleen associated tyrosine kinase inhibitor (SYKi) naive MV4-11 cells (AID 1963823); further: nearly all actives have a fitted effect of over 40% in size
Condition description: MV4-11 AML viability, CellTiter-Glo luminescence, 72 h; series mostly up to 45 µM
Protocol: Department of Medicine, Hematology/Oncology University Hospital Frankfurt, Germany. Trials have shown promising clinical activity of the selective SYK inhibitor entospletinib in patients with high expressing HOXA9/MEIS1 acute leukemias. […] 7; Detection; Luminescence; ViewLux plate reader (PerkinElmer). […] 1. Quantitative high-throughput screening (qHTS) of small molecule compounds was conducted on naive SYKi MV4-11 cell line. […] 7. Luminescence was measured on a ViewLux plate reader (PerkinElmer).
Inconclusive results are not listed. Active and inactive are the calls of the source. The call rests on the fitted dose curve; in most records, active means well fitted cell-killing curve with a large enough effect; inconclusive means small, poorly fitted or top-dose-only effect, or effect the other way; inactive means no such curve, though single readings can be large or run the other way.
// one of active, inactive, no free text

Answered cases to consult:
# Molecule, Group label
rows = [
    ("COc1cc2nc(N3CCCN(C)CC3)nc(NC3CCN(Cc4ccccc4)CC3)c2cc1OC", "active"),
    ("O=C(CCCN1CC=C(n2c(=O)[nH]c3ccccc32)CC1)c1ccc(F)cc1", "inactive"),
    ("CNC(=O)[C@@H](NC(=O)[C@H](CC(C)C)[C@H](O)C(=O)NO)C(C)(C)C", "active"),
    ("COc1cc(C(=O)NC2CCN(C)CC2)ccc1Nc1ncc2c(n1)N(C1CCCC1)CC(F)(F)C(=O)N2C", "active"),
    ("CC(C)(O)/C=C/C1=CC(=O)[C@@](C)(O)C[C@H]1O", "inactive"),
    ("COc1ccccc1N1CCN(CCCNc2cc(=O)n(C)c(=O)n2C)CC1", "inactive"),
]

Per the assay record, what outcome was assigned to CN(C)CC/C=C1\c2ccccc2COc2ccccc21 ? inactive

Queued: COc1ccccc1C(=O)Nc1cc2c(cc1N1CCCC1)n(C)c(=O)n2C active

###

Run description: Viability qHTS for spleen associated tyrosine kinase inhibitor (SYKi) drug resistant MV4-11 cells (AID 1963824); further: nearly all actives have a fitted effect of over 35% in size
Condition description: SYKi-resistant MV4-11 viability, CellTiter-Glo, 72 h; series mostly up to 45 µM
Records with an inconclusive call do not appear. Calls of active or inactive are those of the source. Calls come from the whole dose curve; as a rule, active = well fitted cell-killing curve with a large enough effect; inconclusive = small, poorly fitted or top-dose-only effect, or effect the other way; inactive = no such curve, though single readings can be large or run the other way.
// one of active, inactive, no free text

# Compound, Group label
data = [
    ("CCC(C)(O)C(O)C(=O)OCc1ccc(O[C@@H]2O[C@H](CO)[C@@H](O)[C@H](O)[C@H]2O)c(OC)c1 (some centres not stated)", "inactive"),
    ("CNCc1ccc(C)c(NC(=O)c2ccc(Nc3nc(-c4ccccc4)c4ccccc4n3)cc2)c1", "active"),
]

Per the assay record, what outcome was assigned to CCOC(=O)c1ccc(N(C)c2csc(-c3ccccc3)n2)cc1 ? inactive

Queued: COc1cc2nccc(Oc3ccc(NC(=O)Nc4ccc(F)cc4F)c(F)c3)c2cc1OC active

Queued: Cc1ccc(OCCSc2ncccn2)c(Br)c1 inactive

Queued: CC1(C)SC2C(NC(=O)[C@H](NC(=O)N3CCNC3=O)c3ccccc3)C(=O)N2C1C(=O)O (some centres not stated) inactive

Queued: CN1CCN(C2=Nc3ccccc3Nc3ccc(O)cc32)CC1 inactive

Queued: C=C[C@@H]1[C@H](O[C@@H]2O[C@H](CO)[C@@H](O)[C@H](O)[C@H]2O)OC=C(C(=O)O)[C@H]1CCOC(=O)/C=C/c1ccc(O)c(O)c1 inactive

Queued: COc1cc(/C=C/C(=O)OC2[C@H](O)CC(O)(C(=O)O)C[C@H]2O)ccc1O (some centres not stated) inactive

Queued: CC[C@H]1OC(=O)[C@](C)(F)C(=O)[C@H](C)[C@@H](O[C@@H]2O[C@H](C)C[C@H](N(C)C)[C@H]2O)[C@](C)(OC)C[C@@H](C)C(=O)[C@@H](C)[C@H]2N(CCCCn3cc(-c4cccc(N)c4)nn3)C(=O)O[C@]12C active

Queued: N#Cc1c(N)nc(N)nc1N[C@H](c1nc2c(F)ccc(Cl)c2c(=O)n1-c1cccnc1)C1CC1 active

Queued: CNCCC(Oc1ccccc1OC)c1ccccc1 (configuration not stated) inactive

Queued: CC(=O)O[C@H]1[C@H](Oc2ccccc2COC(=O)C2(O)C=CCCC2=O)O[C@H](CO)[C@@H](O)[C@@H]1O (some centres not stated) inactive

Queued: CC(Nc1ncnc2nc[nH]c12)c1cc2cccc(Cl)c2c(=O)n1-c1ccccc1 (configuration not stated) active

Queued: CN(Cc1ccc(C(C)(C)C)cc1)Cc1cccc2ccccc12 inactive

Queued: COc1ccc(Oc2c(Cl)cnn(-c3cc(C)cc(C)c3)c2=O)cc1 active

###

Run description: Viability qHTS for spleen associated tyrosine kinase inhibitor (SYKi) drug resistant MV4-11 cells (AID 1963824); further: nearly all actives have a fitted effect of over 35% in size
Condition description: SYKi-resistant MV4-11 viability, CellTiter-Glo, 72 h; series mostly up to 45 µM
Results filed as inconclusive are left out. Activity calls are given as the source filed them. The call rests on the fitted dose curve; in most records, active means well fitted cell-killing curve with a large enough effect; inconclusive means small, poorly fitted or top-dose-only effect, or effect the other way; inactive means no such curve, though single readings can be large or run the other way.
// one of T (active), F (inactive), no free text

Answered cases to consult:
# Molecule, Group label
measured = [
    ("CCC1(C)CC(=O)NC1=O (configuration not stated)", "F"),
    ("Nc1nc(NCCNc2ncc(-n3ccnc3)c(-c3ccc(Cl)cc3Cl)n2)ccc1[N+](=O)[O-]", "T"),
    ("Cc1cc(F)ccc1[C@H]1C[C@@H](N2CCN3C(=O)CC[C@H]3C2)CCN1C(=O)N(C)[C@H](C)c1cc(C(F)(F)F)cc(C(F)(F)F)c1", "T"),
]

Per the assay record, what outcome was assigned to CC(=O)OC1C(O)CC(O[C@@H]2O[C@H](CO)[C@@H](O)[C@H](O)[C@H]2O)C2CCC3C(=O)OC(c4ccoc4)CC3(C)C21 (some centres not stated) ? F

Queued: CCN(CC)S(=O)(=O)c1ccc(C(=O)O)cc1 F

Queued: COc1ccccc1NC(=O)Nc1ccc2ccccc2c1 T

###

Run description: Quantitative highthroughput screen to assess conditional lethalithy of NOMO1 cells grown in RPMI1640 with dialyzed fetal bovine serum (RPMI+ds) (AID 1963877); further: nearly all actives have a fitted effect of over 30% in size
Condition description: NOMO1 in RPMI+dialyzed FBS viability, ATP luminescence, 48 h; series mostly up to 45.8 µM
Inconclusive results are not listed. The source made the active and inactive calls. The call rests on the fitted dose curve; in most records, active means well fitted cell-killing curve with a large enough effect; inconclusive means small, poorly fitted or top-dose-only effect; inactive means flat fitted curve, though single readings scatter.
// one of active, inactive, no free text

# Compound, Group label
measured = [
    ("Cc1nn(C)c(COc2ccc(N3CCN(S(=O)(=O)N(C)C)CC3)cc2)c1-c1cccc2c(CCCOc3cccc4ccccc34)c(C(=O)O)n(CCN3CCOCC3)c12", "inactive"),
    ("CC1(C)NC(=O)N(c2ccc([N+](=O)[O-])c(C(F)(F)F)c2)C1=O", "inactive"),
]

Per the assay record, what outcome was assigned to CC(C)C1CCC(C(=O)N[C@H](Cc2ccccc2)C(=O)O)CC1 (stereo not given in full) ? inactive

Queued: NCCCC(O)(P(=O)(O)O)P(=O)(O)O active

Queued: N=C1SC(=Cc2ccc(-c3ccc4c(c3)C(=O)NC4=O)o2)C(=O)N1c1ccc(Br)cc1 inactive

Where these numbers come from: PubChem BioAssay (NCATS)
